Would you kindly list inhibition at 20 µM for each of these molecules?
# SYSTEM UNDER TEST: KRas G12C mutant (Homo sapiens (Human), UniProt P01116, G12C)
# Sequence (P01116-2 other isoform, or with tags, fused parts or gaps G12C): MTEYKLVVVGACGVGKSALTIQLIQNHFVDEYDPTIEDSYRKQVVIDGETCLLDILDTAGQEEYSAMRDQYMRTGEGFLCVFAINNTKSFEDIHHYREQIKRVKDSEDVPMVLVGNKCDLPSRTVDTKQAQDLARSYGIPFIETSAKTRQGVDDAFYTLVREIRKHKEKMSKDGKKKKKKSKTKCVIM
# ASSAY NOTES: Ras GTP binding domain inhibition assay (labeled GTP)
# DETAILS: 20 μM compound; read-out: % Inhibition at 20 μM KRas G12C
# Procedure: Buffer-I: • 50 mM Tris, pH 7.5 • 150 mM NaCl (optional) • 1 mM MgCl2 • 1 mM DTT. • KRas G12D mutant protein was expressed as a His-tagged protein. […] Then 22 μl of Cy3-GTP or Cy5-GTP was added to each well. The labeled GTP was incubated for 45 min. at room temperature. • Following GTP incubation, wells were washed 3× in Buffer-I, and 200 μl of Buffer-I were added to each well. • Following washes, the amount of bound labeled-GTP was measured with an Eppendorf AF2200 plate reader. […]

So for Oc1nc(-c2ccccn2)nc2sccc12 [drawing 2704] , the logged inhibition at 20 µM turned out to be 25 to 50%

So for COc1cc(-c2csc3c(O)nc(-c4ccccn4)nc23)cnc1C(F)(F)F [drawing 2884] , the logged inhibition at 20 µM turned out to be 51 to 75%

So for CC1(O)CCN(C(=O)c2csc3c(O)nc(-c4ccccn4)nc23)CC1 [drawing 2683] , the logged inhibition at 20 µM turned out to be 25 to 50%

So for O=C(c1csc2c(O)nc(-c3ccccn3)nc12)N1CCC(c2ccncc2)C1 (stereo not drawn) [drawing 2839] , the logged inhibition at 20 µM turned out to be 51 to 75%

So for O=C(CCn1ccnc1)Nc1nc(-c2ccccn2)nc2sccc12 [drawing 2889] , the logged inhibition at 20 µM turned out to be 25 to 50%

So for O=C(COCc1ccncc1)Nc1nc(-c2ccccn2)nc2sccc12 [drawing 2828] , the logged inhibition at 20 µM turned out to be 51 to 75%

So for O=C(c1cc2nc(-c3ccccn3)nc(O)c2s1)N1CCN(c2ccccc2)CC1 [drawing 2841] , the logged inhibition at 20 µM turned out to be 51 to 75%

So for Nc1nc(-c2ccccn2)nc2ccsc12 [drawing 2834] , the logged inhibition at 20 µM turned out to be 25 to 50%

So for Cc1cnc(-c2ccccn2)nc1NC(=O)C1CCCc2cc(C#N)ccc21 (stereo not drawn) [drawing 2827] , the logged inhibition at 20 µM turned out to be 25 to 50%

* * *

Would you kindly list inhibition at 20 µM for each of these compounds?
# SYSTEM UNDER TEST: KRas G12D mutant protein (Homo sapiens (Human), UniProt P01116, G12D)
# Sequence (P01116-2 other isoform, or with tags, fused parts or gaps G12D): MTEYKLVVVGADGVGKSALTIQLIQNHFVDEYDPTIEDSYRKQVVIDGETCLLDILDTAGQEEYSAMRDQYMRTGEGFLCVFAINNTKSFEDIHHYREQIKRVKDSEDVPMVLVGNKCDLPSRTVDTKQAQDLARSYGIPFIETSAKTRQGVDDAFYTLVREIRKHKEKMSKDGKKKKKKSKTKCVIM
# ASSAY NOTES: Ras GTP binding domain inhibition assay (labeled GTP)
# DETAILS: 20 μM compound; read-out: % Inhibition at 20 μM KRas G12D

So for CC1(N)CCN(C(=O)c2csc3c(O)nc(-c4ccccn4)nc23)CC1 [drawing 2684] , the logged inhibition at 20 µM turned out to be 51 to 75%

So for O=C(COCc1ccnc(O)c1)Nc1nc(-c2ccccn2)nc2sccc12 [drawing 2857] , the logged inhibition at 20 µM turned out to be 25 to 50%

So for O=C(c1csc2c(O)nc(-c3ccccn3)nc12)N1CCOC(c2ccc(F)cc2)C1 (stereo not shown) [drawing 2743] , the logged inhibition at 20 µM turned out to be 51 to 75%

So for O=C(c1csc2c(O)nc(-c3ccccn3)nc12)N1CCC(c2cccc(O)c2)C1 (stereo not shown) [drawing 2840] , the logged inhibition at 20 µM turned out to be 76 to 100%

So for COCCC(C)Nc1nc(-c2ccccn2)nc2sccc12 (stereo not shown) [drawing 2709] , the logged inhibition at 20 µM turned out to be 51 to 75%

So for N#Cc1ccc(COCC(=O)Nc2nc(-c3ccccn3)nc3sccc23)cc1 [drawing 2799] , the logged inhibition at 20 µM turned out to be 76 to 100%

So for Cc1sc2c(O)nc(-c3ccccn3)nc2c1-c1ccccc1 [drawing 2905] , the logged inhibition at 20 µM turned out to be 51 to 75%

So for O=C(c1csc2c(O)nc(-c3ccccn3)nc12)N1CCN(c2ccccc2)CC1 [drawing 2680] , the logged inhibition at 20 µM turned out to be 51 to 75%

So for Cc1cnc(-c2ccccn2)nc1NC(=O)COCc1ccncc1 , the logged inhibition at 20 µM turned out to be 51 to 75%

So for CC1CN(c2ccccc2)CCN1C(=O)c1csc2c(O)nc(-c3ccccn3)nc12 (stereo not shown) [drawing 2761] , the logged inhibition at 20 µM turned out to be 76 to 100%

So for Oc1nc(-c2ccccn2)nc2sccc12 [drawing 2704] , the logged inhibition at 20 µM turned out to be 25 to 50%

So for Oc1nc(-c2ccccn2)nc2c(-c3ccsc3)csc12 [drawing 2875] , the logged inhibition at 20 µM turned out to be 51 to 75%

So for O=C(c1csc2c(O)nc(-c3ccccn3)nc12)N1CCC(c2cccnc2)CC1 [drawing 2682] , the logged inhibition at 20 µM turned out to be 51 to 75%

So for Oc1nc(-c2ccccn2)nc2c1ncn2-c1ccccc1 [drawing 2697] , the logged inhibition at 20 µM turned out to be 51 to 75%

So for O=C(CCc1cncnc1)Nc1nc(-c2ccccn2)nc2sccc12 [drawing 2891] , the logged inhibition at 20 µM turned out to be 51 to 75%

So for Oc1nc(-c2ccccn2)nc2sc3c(c12)CCCNC3 [drawing 2852] , the logged inhibition at 20 µM turned out to be 51 to 75%

So for c1ccc(-c2nc(NCC3CCCO3)c3ccsc3n2)nc1 (stereo not shown) [drawing 2705] , the logged inhibition at 20 µM turned out to be 51 to 75%

So for COCc1ccc(-c2csc3c(O)nc(-c4ccccn4)nc23)cc1F [drawing 2846] , the logged inhibition at 20 µM turned out to be 51 to 75%

So for O=C(CCc1nn[nH]n1)Nc1nc(-c2ccccn2)nc2sccc12 [drawing 2890] , the logged inhibition at 20 µM turned out to be 51 to 75%

* * *

Would you kindly list inhibition at 10 µM for each of these compounds?
# System: MAPK phosphorylation in PANC-1 pancreatic cancer cell line
# ASSAY NOTES: MAPK cell-based phosphorylation assay (cell-direct ELISA, EGF stimulation)
# DETAILS: Homo sapiens, * = tested at 10 μM

So for Oc1nc(-c2ccccn2)nc2c(-c3ccccc3F)csc12 [drawing 1207] , the logged inhibition at 10 µM turned out to be 76 to 100%

So for Cn1ccnc1-c1nc(O)c2c(-c3ccccc3)c(-c3ccccc3)sc2n1 [drawing 1296] , the logged inhibition at 10 µM turned out to be 0%

So for CC(C)Cc1csc2c(O)nc(-c3ccccn3)nc12 [drawing 1255] , the logged inhibition at 10 µM turned out to be 76 to 100%

So for COc1ccnc(-c2nc(O)c3c(C(F)(F)F)csc3n2)c1 [drawing 1186] , the logged inhibition at 10 µM turned out to be 1 to 25%

So for Cc1c(Br)sc2c(O)nc(-c3ccccn3)nc12 [drawing 1248] , the logged inhibition at 10 µM turned out to be 1 to 25%

So for Oc1nc(-c2ccccn2)nc(Oc2cccc(C(F)(F)F)c2)c1O [drawing 1318] , the logged inhibition at 10 µM turned out to be 1 to 25%

So for Oc1nc(-c2ccccn2)nc2c(-c3ccc4c(c3)CCCO4)csc12 [drawing 1238] , the logged inhibition at 10 µM turned out to be 76 to 100%

So for CCC(C)c1csc2c(OC)nc(-c3ccccn3)nc12 (stereo not shown) [drawing 1245] , the logged inhibition at 10 µM turned out to be 25 to 50%

So for COc1ccc(F)cc1-c1csc2c(O)nc(-c3ccccn3)nc12 [drawing 1213] , the logged inhibition at 10 µM turned out to be 25 to 50%

So for Cc1sc2c(O)nc(-c3nccn3C)nc2c1-c1cccc(C(F)(F)F)c1 [drawing 1359] , the logged inhibition at 10 µM turned out to be 1 to 25%

So for CCOCCNc1nc(-c2nccn2C)nc2sc(-c3ccccc3)c(-c3ccccc3)c12 [drawing 1335] , the logged inhibition at 10 µM turned out to be 76 to 100%

So for Oc1nc(-c2ccccn2)nc2c(-c3ccc(OC4CCCCC4)cc3)csc12 [drawing 1224] , the logged inhibition at 10 µM turned out to be 25 to 50%

So for Oc1nc(-c2ccccn2)nc2c(C3CCCCC3)csc12 [drawing 1272] , the logged inhibition at 10 µM turned out to be 25 to 50%

So for Oc1nc(-c2ccccn2)nc2c(Br)c(-c3ccccc3)sc12 [drawing 1313] , the logged inhibition at 10 µM turned out to be 0%

So for Oc1nc(-c2ccccn2)nc2c(-c3cncnc3)csc12 [drawing 1265] , the logged inhibition at 10 µM turned out to be 0%

So for OCC1(c2ccc(-c3nc(-c4ccccn4)nc(-c4ccc(C5(CO)CC5)cc4)c3Oc3ccccc3)cc2)CC1 [drawing 1292] , the logged inhibition at 10 µM turned out to be 51 to 75%

So for Oc1nc(-c2ccccn2)nc2c(-c3ccnn3-c3ccccn3)csc12 [drawing 1240] , the logged inhibition at 10 µM turned out to be 1 to 25%

So for Oc1nc(-c2ccccn2)nc2c1c(-c1ccccc1)nn2-c1ccccn1 [drawing 1299] , the logged inhibition at 10 µM turned out to be 0%

So for Cc1c(C(=O)O)sc2c(O)nc(-c3ccccn3)nc12 [drawing 1249] , the logged inhibition at 10 µM turned out to be 25 to 50%
